- assayedSystem: Acetylcholinesterase (Homo sapiens)
- testDetails: Acetylcholinesterase (AChE) small molecule antagonists: fluorescence cell-based qHTS assay (AID 1347398); further: nearly all actives have a fitted effect of over 50% in size
- conditionContext: SH-SY5Y cells; AChE activity; series mostly up to 115 µM
Records with an inconclusive call do not appear. Activity calls are given as the source filed them. The call rests on the fitted dose curve.
Possible outcomes: 1 (active), 0 (inactive)

{"columns": ["molecule", "categoryLabel"],
 "data": [
  ["O=[N+]([O-])CCO", 0],
  ["CCC1(CC)C(=O)C=CNC1=O", 0],
  ["CN(C)C1CCCCC1", 0],
  ["C#CC(C)(C)O", 0],
  ["Cc1ccc2cc(C)ccc2c1", 0],
  ["BrCCc1ccccc1", 0],
  ["O=C(O)CBr", 0],
  ["CC(C)C(C)(N)C#N (stereo not given)", 0],
  ["C[C@H](N)C(=O)c1ccccc1", 0],
  ["O=C(Cl)C(Cl)(Cl)Cl", 0],
  ["CC(C)(C)C(=O)Cl", 0],
  ["Clc1ccc(C(Cl)(Cl)Cl)cn1", 0],
  ["CCCOC(=O)c1cncn1C(C)c1ccccc1 (stereo not given)", 0],
  ["O=C(Cl)/C=C/C(=O)Cl", 0],
  ["CN(CCO)CCO", 0],
  ["COc1ccc(CN2CCNCC2)c(OC)c1OC", 0],
  ["OCC(Cl)CCl (stereo not given)", 0],
  ["ClCCCCCCCl", 0],
  ["CCCOc1nn(C(=O)NS(=O)(=O)c2ccccc2C(=O)OC)c(=O)n1C", 0],
  ["CC(Cl)(Cl)Cl", 0],
  ["O=C(O)c1c(Cl)ccc2cc(Cl)cnc12", 0],
  ["CC(C)[N+](C)(CCC(C(N)=O)(c1ccccc1)c1ccccc1)C(C)C", 0],
  ["CC(C)[C@]12CC(=O)[C@H](C)[C@H]1C2", 0],
  ["O=C(NC(=O)c1c(F)cccc1F)Nc1cc(Cl)c(F)c(Cl)c1F", 0],
  ["CC[C@@H](CO)NC(=O)[C@@H]1C=C2c3cccc4c3c(cn4C)C[C@H]2N(C)C1", 1]
]}

* * *

- assayedSystem: Estrogen receptor (Homo sapiens) (UniProt P03372)
- Sequence (P03372 whole entry, looked up): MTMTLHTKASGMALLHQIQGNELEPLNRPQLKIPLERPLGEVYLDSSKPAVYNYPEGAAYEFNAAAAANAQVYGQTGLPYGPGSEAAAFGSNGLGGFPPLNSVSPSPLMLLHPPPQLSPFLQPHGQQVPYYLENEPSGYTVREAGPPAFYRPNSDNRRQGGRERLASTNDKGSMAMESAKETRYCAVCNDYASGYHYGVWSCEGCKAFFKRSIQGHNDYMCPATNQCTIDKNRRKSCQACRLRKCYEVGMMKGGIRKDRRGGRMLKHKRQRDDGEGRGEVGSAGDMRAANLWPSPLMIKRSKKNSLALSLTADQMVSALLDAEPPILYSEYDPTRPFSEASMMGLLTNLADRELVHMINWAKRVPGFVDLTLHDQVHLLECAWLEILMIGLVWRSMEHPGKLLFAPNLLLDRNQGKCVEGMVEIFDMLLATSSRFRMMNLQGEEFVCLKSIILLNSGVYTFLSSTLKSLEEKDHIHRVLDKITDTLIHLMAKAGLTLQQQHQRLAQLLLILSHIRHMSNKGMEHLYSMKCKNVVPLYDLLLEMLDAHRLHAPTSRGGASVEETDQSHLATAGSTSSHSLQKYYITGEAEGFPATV
- testDetails: qHTS assay to identify small molecule agonists of the estrogen receptor alpha (ER-alpha) signaling pathway (AID 743075);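 further: HEK293 GripTite cells with ER-alpha and UAS-driven beta-lactamase reporter; on the % scale 0 is the no-effect control and ±100 the full control effect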
- conditionContext: HEK293 ER-alpha-UAS-bla, beta-lactamase FRET ratio, 18 h; series mostly up to 70.1 µM
Results filed as inconclusive are left out. The source made the active and inactive calls. Calls follow the shape of the full dose curve.

{"columns": ["structureSmilesString", "assayedSystem", "activation"],
 "data": [
  ["CCCCOC(C)=O", "Estrogen receptor (Homo sapiens) (UniProt P03372)", "inactive"],
  ["ClCOCCl", "Estrogen receptor (Homo sapiens) (UniProt P03372)", "inactive"],
  ["COC(=O)c1ccccc1CS(=O)(=O)NC(=O)Nc1nc(OC)cc(OC)n1", "Estrogen receptor (Homo sapiens) (UniProt P03372)", "inactive"],
  ["NCCOS(=O)(=O)O", "Estrogen receptor (Homo sapiens) (UniProt P03372)", "inactive"],
  ["COc1cccc(C=O)c1", "Estrogen receptor (Homo sapiens) (UniProt P03372)", "inactive"],
  ["CNC(=O)Oc1ccccc1C(C)C", "Estrogen receptor (Homo sapiens) (UniProt P03372)", "inactive"],
  ["[O-][Br+2]([O-])O", "Estrogen receptor (Homo sapiens) (UniProt P03372)", "inactive"],
  ["Clc1ccc(C(Cl)(Cl)Cl)cn1", "Estrogen receptor (Homo sapiens) (UniProt P03372)", "inactive"],
  ["CCN(CC)CCOC(=O)C(O)(c1ccccc1)c1ccccc1", "Estrogen receptor (Homo sapiens) (UniProt P03372)", "inactive"]
]}

* * *

- testDetails: qHTS RealTime-Glo MT Cell Viability Assay in HepG2 cells - 40 hour (AID 1224870); further: nearly all actives have a fitted effect of over 50% in size
- conditionContext: RealTime-Glo luminescence; series mostly up to 76.8 µM
Results filed as inconclusive are left out. The source made the active and inactive calls. Calls follow the shape of the dose curve; as a rule, active = well fitted cell-killing curve with a large enough effect in the repeat runs; inconclusive = weak or mixed curves, or effect the other way; inactive = flat fitted curve, though single readings scatter.
Outcome codes: yes (1) for active, no (0) for inactive

{"columns": ["molecule", "categoryLabel"],
 "data": [
  ["Oc1ccc2c3c1O[C@H]1[C@@H](O)C=C[C@H]4[C@@H](C2)NCC[C@@]341", "no (0)"],
  ["CCN[C@H](C)Cc1cccc(C(F)(F)F)c1", "no (0)"],
  ["CC(C)[N+](C)(CCC(C(N)=O)(c1ccccc1)c1ccccc1)C(C)C", "yes (1)"],
  ["CCC(C)(C#N)N=NC(C)(C#N)CC (configuration not stated)", "no (0)"],
  ["NCCOS(=O)(=O)O", "no (0)"],
  ["O=C/C=C/c1ccco1", "no (0)"],
  ["O=C(NC(=O)c1c(F)cccc1F)Nc1cc(Cl)c(F)c(Cl)c1F", "no (0)"],
  ["C[C@]12C=CC(=O)C=C1CC[C@@H]1[C@@H]2CC[C@@]2(C)[C@H]1CC[C@]2(C)O", "no (0)"],
  ["CNC(=O)Oc1ccccc1C(C)C", "no (0)"],
  ["CCOC(=O)CCl", "no (0)"],
  ["CNC(=O)Oc1cc(C)c(N(C)C)c(C)c1", "no (0)"],
  ["CC[C@@H](CO)NC(=O)[C@@H]1C=C2c3cccc4c3c(cn4C)C[C@H]2N(C)C1", "no (0)"],
  ["CNC(=O)NC(O)C(Cl)(Cl)Cl (configuration not stated)", "no (0)"],
  ["CCC1(c2ccccc2)C(=O)N(COC)C(=O)N(COC)C1=O", "no (0)"],
  ["CCN(CC)C1CCCCC1", "no (0)"],
  ["C=CC1(C)OC(=O)N(c2cc(Cl)cc(Cl)c2)C1=O (configuration not stated)", "no (0)"],
  ["CC#Cc1cc(C)nc(Nc2ccccc2)n1", "no (0)"],
  ["COc1cccc(C=O)c1", "no (0)"],
  ["CCCN1CCC[C@@H]2Cc3[nH]ncc3C[C@H]21", "no (0)"],
  ["C#CC(C)(C)O", "no (0)"],
  ["S=C=S", "no (0)"],
  ["O=C(O)C(Br)(Br)Br", "yes (1)"]
]}

* * *

- testDetails: qHTS assay for identifying genotoxic compounds that show differential cytotoxicity against isogenic chicken DT40 cell lines with known DNA damage response pathways - Rad54/Ku70 mutant cell line (AID 743015); further: on the % scale 0 is the no-effect control and ±100 the full control effect; nearly all actives have a fitted effect of over 60% in size
- conditionContext: DT40 Rad54/Ku70 mutant viability, CellTiter-Glo, 40 h; series mostly up to 66.8 µM
Records with an inconclusive call do not appear. Calls of active or inactive are those of the source. Calls come from the whole dose curve; as a rule, active = well fitted cell-killing curve with a large enough effect in the repeat runs; inconclusive = weak or mixed curves; inactive = no such curve, though single readings can be large or run the other way.
endpoint: outcome

{"columns": ["compound", "reportedMeasurement"],
 "data": [
  ["Cc1ccc2c(c1)C1CN(C)CCC1N2 (stereo not drawn)", "inactive"],
  ["C/C=C/CC#N", "inactive"],
  ["c1cncc([C@@H]2CCCCN2)c1", "inactive"],
  ["CCOP(=S)(OCC)SCCl", "inactive"],
  ["S=C=S", "inactive"],
  ["O=C(Cl)C(Cl)Cl", "inactive"],
  ["CCC1(c2ccccc2)C(=O)N(COC)C(=O)N(COC)C1=O", "inactive"],
  ["CCCC[N+](=O)[O-]", "inactive"]
]}

* * *

- testDetails: qHTS assay for small molecule disruptors of the mitochondrial membrane potential (AID 720635)
- conditionContext: HepG2 mitochondrial membrane potential, Mito-MPS dye ratio; series mostly up to 83.2 µM
Results filed as inconclusive are left out. Active and inactive are the calls of the source. Calls follow the shape of the dose curve; as a rule, active = well fitted inhibition curve with a large enough effect in the signal ratio in the repeat runs; inconclusive = weak or mixed curves, or effect the other way; inactive = flat fitted curve, though single readings scatter; the % refers to the signal ratio.
Labels: active, inactive

{"columns": ["compound", "categoryLabel"],
 "data": [
  ["NNCc1ccccc1", "active"],
  ["ClC(Cl)(Cl)Cl", "inactive"],
  ["CCCC(C)C1(CC)C(=O)N=C(S)NC1=O (stereo unspecified)", "inactive"],
  ["BrCc1ccc(Br)cc1", "inactive"],
  ["CCCOC(=O)Cc1ccc(OCC(=O)N(CC)CC)c(OC)c1", "inactive"],
  ["COP(=O)(O)OC", "inactive"],
  ["CC(C)(C1CCC(O)CC1)C1CCC(O)CC1 (stereo unspecified)", "active"],
  ["N[C@@H](Cc1ccc(Oc2cc(I)c(O)c(I)c2)c(I)c1)C(=O)O", "inactive"],
  ["COC1=CC(=O)O[C@@H](/C=C/c2ccccc2)C1", "inactive"],
  ["N=C(N)[Se]", "inactive"],
  ["CC[C@@H](CO)NC(=O)[C@@H]1C=C2c3cccc4[nH]cc(c34)C[C@H]2N(C)C1", "inactive"],
  ["COC(=O)[C@@H](N)CCCN/C(N)=N/[N+](=O)[O-]", "inactive"],
  ["CCCCOC(C)=O", "inactive"],
  ["C[N+]1(C)CCCCC1", "inactive"],
  ["Cn1c(N)nc2c3cccnc3ccc21", "inactive"],
  ["ClCOCCl", "inactive"]
]}
